Cited source: patent US7528162B2

quantity_kind: melting point

Study these solved cases before continuing.
| compound | quantity_kind | observed |
| --- | --- | --- |
| CONC(=NS(=O)(=O)c1cc(F)c(F)cc1F)N1CC(c2ccccc2)C(c2ccc(Cl)cc2)=N1 (centres unmarked) | melting point | 160 to 162 °C |
| CONC(=NS(=O)(=O)c1ccc(Cl)cc1)N1CC(c2ccccc2)C(c2ccc(Cl)s2)=N1 (centres unmarked) | melting point | 180 to 181 °C |
| CONC(=NS(=O)(=O)c1ccc(Cl)cc1)N1CC(c2ccccc2F)C(c2ccc(Cl)cc2)=N1 (centres unmarked) | melting point | 162 to 164 °C |
| O=S(=O)(N=C(NN1CCCCC1)N1CC(c2ccccc2)C(c2ccc(Cl)cc2)=N1)c1ccc(Cl)cc1 (centres unmarked) | melting point | 213 to 214 °C |
| CN1CCN(C(=NS(=O)(=O)c2ccc(Cl)cc2)N2CC(c3cccc(C(F)(F)F)c3)C(c3ccc(Cl)cc3)=N2)CC1 (centres unmarked) | melting point | 97 to 100 °C |
| CONC(=NS(=O)(=O)c1ccc(Cl)cc1)N1CC(c2cccc(C(F)(F)F)c2)C(c2ccc(Cl)cc2)=N1 (centres unmarked) | melting point | 80 to 83 °C |
| CONC(=NS(=O)(=O)c1cccc(C)c1)N1CC(c2ccccc2)C(c2ccc(Cl)cc2)=N1 (centres unmarked) | melting point | 151 to 152 °C |

Moving on to another compound below.
Query: What does the data say about its melting point? Entry: CONC(=NS(=O)(=O)c1ccc(Cl)cc1)N1CC(c2c(F)cccc2F)C(c2ccc(Cl)cc2)=N1 (centres unmarked)
Result: 174 to 177 °C

###

Listed below: melting point values for each entry.

Would you please look over these solved cases?
| molecule | melting point |
| --- | --- |
| CONC(=NS(=O)(=O)c1ccc(C(F)(F)F)cc1)N1CC(c2ccccc2F)C(c2ccc(Cl)cc2)=N1 (stereo not drawn) | 147 to 149 °C |
| O=S(=O)(N=C(NCCF)N1CC(c2cccc(F)c2)C(c2ccc(Cl)cc2)=N1)c1ccc(Cl)cc1 (stereo not drawn) | 130 °C |

Moving on to the next molecule.
Query: Look up melting point: CONC(=NS(=O)(=O)c1ccc(Cl)cc1)N1CC(c2ccccc2)C(c2ccc(F)cc2)=N1 (stereo not drawn)
Result: 201 to 203 °C

###

Attribute: melting point

Reference set (3 entries):
| compound | observed |
| --- | --- |
| CONC(=NS(=O)(=O)c1ccccc1C)N1CC(c2ccccc2)C(c2ccc(Cl)cc2)=N1 (stereo not shown) | 145 to 146 °C |
| O=S(=O)(N=C(NCCF)N1CC(c2c(F)cccc2F)C(c2ccc(Cl)cc2)=N1)c1ccc(Cl)cc1 (stereo not shown) | 153 to 155 °C |
| CONC(=NS(=O)(=O)c1ccc(C(F)(F)F)cc1)N1CC(c2cccc(F)c2)C(c2ccc(Cl)cc2)=N1 (stereo not shown) | > 260 °C |

Query: So what's the measured melting point for this one? O=S(=O)(N=C(NCCF)N1CC(c2cccc(F)c2)C(c2ccc(Cl)cc2)=N1)c1ccc(C(F)(F)F)cc1 (stereo not shown)
Result: 155 °C
